meta.source: the supplement of paper PMC9925115

test system: FLX1; assay: cell viability z-score within plate (CellTiter-Glo), mean of 3 biological replicates; higher = higher viability relative to plate (less growth inhibition); conditions: 2 µM; time (hr): 120
Friendly reminder: cell viability z-score within plate below 0.2 is label 1, at or above is label 0.

molecule	tested_on	label_value
O=C(NCCCNc1nc(Nc2cccc(NC(=O)N3CCCC3)c2)ncc1I)c1cccs1	FLX1	label 1
CC1(C)CNc2cc(NC(=O)c3cccnc3NCc3ccncc3)ccc21 [Motesanib Diphosphate (AMG-706)]	FLX1	label 1
Cn1cnc2c(F)c(Nc3ccc(Br)cc3F)c(C(=O)NOCCO)cc21	FLX1	label 1

Incoming: Please determine if `Cc1cnc(Nc2ccc(N3CCN(C)CC3)cc2)nc1Nc1cccc(S(=O)(=O)NC(C)(C)C)c1` is below 0.2 in terms of cell viability z-score within plate.
Outgoing: label 1

Incoming: Please determine if `C[C@H](NC(=O)/C(C#N)=C/c1cccc(Br)n1)c1ccccc1` is below 0.2 in terms of cell viability z-score within plate.
Outgoing: label 0

Incoming: Please determine if `Cc1nc(Nc2n[nH]c3c2CN(C(=O)N[C@H](CN(C)C)c2ccccc2)C3(C)C)c2sccc2n1` is below 0.2 in terms of cell viability z-score within plate.
Outgoing: label 0

Incoming: Please determine if COc1ccc(COc2cc3oc(=O)c4cc(C(C)O)ccc4c3cc2OC)cc1 (stereo unspecified) is below 0.2 in terms of cell viability z-score within plate.
Outgoing: label 1

Incoming: Please determine if `COc1cc2ncnc(Oc3ccc(CC(=O)Nc4cnn(C(C)C)c4)cc3)c2cc1OC` is below 0.2 in terms of cell viability z-score within plate.
Outgoing: label 1

Incoming: Please determine if `C[C@@H](NC(=O)c1ncnc(N)c1Cl)c1ncc(C(=O)Nc2cc(C(F)(F)F)c(Cl)cn2)s1` is below 0.2 in terms of cell viability z-score within plate.
Outgoing: label 0

Incoming: Please determine if `CCCS(=O)(=O)Nc1ccc(F)c(C(=O)c2c[nH]c3ncc(Cl)cc23)c1F` is below 0.2 in terms of cell viability z-score within plate.
Outgoing: label 1

Incoming: Please determine if `CCN1CCN(Cc2ccc(-c3cc4c(N[C@H](C)c5ccccc5)ncnc4[nH]3)cc2)CC1` is below 0.2 in terms of cell viability z-score within plate.
Outgoing: label 0

Incoming: Please determine if `C#Cc1cccc(Nc2ncnc3cc4c(cc23)OCCOCCOCCO4)c1` is below 0.2 in terms of cell viability z-score within plate.
Outgoing: label 0

Incoming: Please determine if `N#Cc1ccc2[nH]c(O)c(-c3ccc(CN4CCOCC4)cn3)c2c1` is below 0.2 in terms of cell viability z-score within plate.
Outgoing: label 0

Incoming: Please determine if COc1cc(Nc2ncc(F)c(Nc3ccc4c(n3)NC(=O)C(C)(C)O4)n2)cc(OC)c1OC [R406 (free base)] is below 0.2 in terms of cell viability z-score within plate.
Outgoing: label 0

Incoming: Please determine if `COc1ncc(-c2ccc3nccc(-c4ccnnc4)c3c2)cc1NS(=O)(=O)c1ccc(F)cc1F` is below 0.2 in terms of cell viability z-score within plate.
Outgoing: label 0

Incoming: Please determine if `COc1cc(OC)c(/C=C/S(=O)(=O)Cc2ccc(OC)c(NCC(=O)O)c2)c(OC)c1` is below 0.2 in terms of cell viability z-score within plate.
Outgoing: label 1
